Reference source: ChEMBL document CHEMBL3046736

# tested.system: Dipeptidyl peptidase 4 (Homo sapiens)
# Sequence (P27487 whole entry): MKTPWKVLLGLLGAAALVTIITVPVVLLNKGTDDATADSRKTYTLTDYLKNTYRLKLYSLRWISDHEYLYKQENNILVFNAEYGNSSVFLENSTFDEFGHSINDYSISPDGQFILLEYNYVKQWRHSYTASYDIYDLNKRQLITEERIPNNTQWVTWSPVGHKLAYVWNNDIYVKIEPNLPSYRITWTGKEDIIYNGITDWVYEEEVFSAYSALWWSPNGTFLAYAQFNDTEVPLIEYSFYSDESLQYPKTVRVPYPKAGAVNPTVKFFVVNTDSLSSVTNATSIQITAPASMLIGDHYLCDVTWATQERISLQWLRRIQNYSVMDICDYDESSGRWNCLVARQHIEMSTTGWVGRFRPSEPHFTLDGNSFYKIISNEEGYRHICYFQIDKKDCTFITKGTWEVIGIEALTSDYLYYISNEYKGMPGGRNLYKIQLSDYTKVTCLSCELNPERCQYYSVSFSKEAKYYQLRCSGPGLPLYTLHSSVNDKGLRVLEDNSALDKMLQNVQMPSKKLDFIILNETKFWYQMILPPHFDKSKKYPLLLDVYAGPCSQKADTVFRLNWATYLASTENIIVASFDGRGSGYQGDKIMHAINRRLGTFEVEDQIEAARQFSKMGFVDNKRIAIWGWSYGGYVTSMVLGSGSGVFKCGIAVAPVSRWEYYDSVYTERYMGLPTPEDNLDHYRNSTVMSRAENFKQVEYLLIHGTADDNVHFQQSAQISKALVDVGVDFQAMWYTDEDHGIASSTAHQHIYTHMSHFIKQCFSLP
# assay.protocol: Inhibition of DPP-4 (unknown origin) assessed as inhibition of endomorphin-2 degradation after 30 min
Residues, ends and D or L forms follow the SMILES beside them.
quantity.measured: Ki
Report as: number unit

Per the reported Dipeptidyl peptidase 4 (Homo sapiens) data, C[C@H](NC(=O)[C@@H]1CCCN1C(=O)[C@@H](N)Cc1ccc(O)cc1)C(N)=O (H-Tyr-Pro-Ala-NH2) has Ki of 170 µM
